B1: F1*; the commonest letter at each place (parent)
chain: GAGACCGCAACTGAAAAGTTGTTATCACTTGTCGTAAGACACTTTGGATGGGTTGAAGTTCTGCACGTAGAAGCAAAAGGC

variants of: B1; test: fraction ligated after 30 min (ligated reads / total reads); higher = more ligase activity; settings: with F1*sub RNA substrate (template-directed ligation), 42 °C
Reported values of fraction ligated for individual entries
reported metric: fraction ligated

[[record]]
primary_sequence = "GAGACCGCAACTGAAAAGTTGTTATCACTTGTCGTAAGACAGTTTGGATGGGTTGATGTTCTGCACGTAGAAGCAAAAGGC [C42G A57T]"
reported_metric = "fraction ligated"
numeric_result = 0.834

[[record]]
primary_sequence = "GAGACCGCAACTGAAAAGTTGTCATCACTTGTCGTAAGACACTTCGGATGGGTTGAAGTTCTGCACGTAGAAGCAAAAGGC [T23C T45C]"
reported_metric = "fraction ligated"
numeric_result = 0.208

[[record]]
primary_sequence = "GAGACCGCAACTGAAAAGTTGTTATCACTTGTCGTAAGACACTTTGGAAGGGTTGTAGTTCTGCACGTAGAAGCAAAAGGC [T49A A56T]"
reported_metric = "fraction ligated"
numeric_result = 0.209

[[record]]
primary_sequence = "GAGACCGCAACTGAAAAGTTGTTATCACTTGTCGTCAGACACTTTGGGTGGGTTGAAGTTCTGCACGTAGAAGCAAAAGGC [A36C A48G]"
reported_metric = "fraction ligated"
numeric_result = 0.784

[[record]]
primary_sequence = "GAGACCGCAACTGAAAAGTTGTTAACACTTGTCGTAAAACACTTTGGATGGGTTGAAGTTCTGCACGTAGAAGCAAAAGGC [T25A G38A]"
reported_metric = "fraction ligated"
numeric_result = 0.353

[[record]]
primary_sequence = "GAGACCGCAACTGAAAAGTTGTTATCACTTGCCGTAAGATACTTTGGATGGGTTGAAGTTCTGCACGTAGAAGCAAAAGGC [T32C C40T]"
reported_metric = "fraction ligated"
numeric_result = 0.786

[[record]]
primary_sequence = "GAGACCGCAACTGAAAAGTTGTTATCACCTCTCGTAAGACACTTTGGATGGGTTGAAGTTCTGCACGTAGAAGCAAAAGGC [T29C G31C]"
reported_metric = "fraction ligated"
numeric_result = 0.804

[[record]]
primary_sequence = "GAGACCGCAACTGAAAAGTTGTTATCACTTGCCGTAAGACACTTTGGATGGGTTTAAGTTCTGCACGTAGAAGCAAAAGGC [T32C G55T]"
reported_metric = "fraction ligated"
numeric_result = 0.75

[[record]]
primary_sequence = "GAGACCGCAACTGAAAAGTTGTTATAACTTATCGTAAGACACTTTGGATGGGTTGAAGTTCTGCACGTAGAAGCAAAAGGC [C26A G31A]"
reported_metric = "fraction ligated"
numeric_result = 0.261

[[record]]
primary_sequence = "GAGACCGCAACTGAAAAGTTGTGAACACTTGTCGTAAGACACTTTGGATGGGTTGAAGTTCTGCACGTAGAAGCAAAAGGC [T23G T25A]"
reported_metric = "fraction ligated"
numeric_result = 0.78

